test: chemical recovery from spiked human plasma; higher = better extraction; settings: pooled human plasma; extraction method: solvent precipitation (ACN + hexane)
quantity: chemical recovery (%)
# number only, unit % dropped from output

Examples from the recorded data:
compound: CSC1=N[C@@](C)(c2ccccc2)C(=O)N1Nc1ccccc1
result-units: %
chemical recovery: 79.4
//
compound: O=S(=O)(O)c1ccc2ccc(S(=O)(=O)O)cc2c1
result-units: %
chemical recovery: 72.8
//
compound: CC1(C)[C@H](C=C(Cl)Cl)[C@H]1C(=O)OCc1c(F)c(F)cc(F)c1F [Transfluthrin]
result-units: %
chemical recovery: 31.9

Shift focus to the following entry.
Form field: reported chemical recovery of Oc1cc(-c2ccc(Cl)cc2)ccc1Cl [3-Hydroxy-4,4'-dichlorobiphenyl]
42.3

Just for reference, the supplement of paper PMC10702517 is where these values come from.
